System: Mus musculus
Test: Toxicity in mouse assessed as increase in bleeding time at 30 mg/kg, po
Type: organism-based
Set-up: dose 30 mg/kg, route oral
Conditions: in vivo
PARAMETER: Activity (%)
Field: numeric (%). Do not append units.

- MOLECULE: "Cc1ccc(S(=O)(=O)N2C[C@H](Cc3ccc(OCc4ccccc4)cc3)N(S(=O)(=O)c3ccc(C)cc3)Cc3ccccc32)cc1"
  STUDY_SYSTEM: "Mus musculus"
  READOUT_UNITS: "%"
  Activity: 4

Query string: Consider the molecule Cc1ccc(S(=O)(=O)N2Cc3ccccc3SC[C@@H]2Cc2ccc(OCc3ccccc3)cc2)cc1 and give its recorded Activity.
Result string: 28

Query string: Consider the molecule Cc1ccc(S(=O)(=O)N2C[C@H](Cc3ccccc3)N(S(=O)(=O)c3ccc(C)cc3)Cc3ccccc32)cc1 and give its recorded Activity.
Result string: 13

Query string: Consider the molecule COc1cccc2c1OC[C@H](Cc1ccc(O)cc1)N(S(=O)(=O)c1ccc(C)cc1)C2 and give its recorded Activity.
Result string: 24
